Study System: PHKG2 (Homo sapiens, UniProt P15735)
Sequence (P15735 1-406): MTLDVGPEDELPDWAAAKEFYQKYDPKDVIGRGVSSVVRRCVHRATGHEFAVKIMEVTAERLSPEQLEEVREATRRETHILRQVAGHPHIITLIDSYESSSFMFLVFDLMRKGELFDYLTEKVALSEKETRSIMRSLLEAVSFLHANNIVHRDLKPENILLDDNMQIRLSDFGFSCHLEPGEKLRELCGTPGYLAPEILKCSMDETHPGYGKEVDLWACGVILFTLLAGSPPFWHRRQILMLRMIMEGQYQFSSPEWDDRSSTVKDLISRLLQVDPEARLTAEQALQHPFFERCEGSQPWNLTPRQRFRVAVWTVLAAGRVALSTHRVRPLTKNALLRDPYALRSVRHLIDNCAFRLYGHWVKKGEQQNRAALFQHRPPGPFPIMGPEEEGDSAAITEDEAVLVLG
pIC50: −log10 of the molar value.
Experimental Endpoint: pIC50

Query the reported pIC50 for PHKG2 (Homo sapiens, UniProt P15735); item: C[C@H]1CN(c2c(NC(=O)c3ccc(F)c(-c4c(F)cccc4F)n3)cnc3c2CC[C@H]3O)C[C@@H](N)[C@@H]1O.O=P(O)(O)O
< 4.70

###

Study System: EPHA2 (Homo sapiens)
Sequence (P29317 24-976): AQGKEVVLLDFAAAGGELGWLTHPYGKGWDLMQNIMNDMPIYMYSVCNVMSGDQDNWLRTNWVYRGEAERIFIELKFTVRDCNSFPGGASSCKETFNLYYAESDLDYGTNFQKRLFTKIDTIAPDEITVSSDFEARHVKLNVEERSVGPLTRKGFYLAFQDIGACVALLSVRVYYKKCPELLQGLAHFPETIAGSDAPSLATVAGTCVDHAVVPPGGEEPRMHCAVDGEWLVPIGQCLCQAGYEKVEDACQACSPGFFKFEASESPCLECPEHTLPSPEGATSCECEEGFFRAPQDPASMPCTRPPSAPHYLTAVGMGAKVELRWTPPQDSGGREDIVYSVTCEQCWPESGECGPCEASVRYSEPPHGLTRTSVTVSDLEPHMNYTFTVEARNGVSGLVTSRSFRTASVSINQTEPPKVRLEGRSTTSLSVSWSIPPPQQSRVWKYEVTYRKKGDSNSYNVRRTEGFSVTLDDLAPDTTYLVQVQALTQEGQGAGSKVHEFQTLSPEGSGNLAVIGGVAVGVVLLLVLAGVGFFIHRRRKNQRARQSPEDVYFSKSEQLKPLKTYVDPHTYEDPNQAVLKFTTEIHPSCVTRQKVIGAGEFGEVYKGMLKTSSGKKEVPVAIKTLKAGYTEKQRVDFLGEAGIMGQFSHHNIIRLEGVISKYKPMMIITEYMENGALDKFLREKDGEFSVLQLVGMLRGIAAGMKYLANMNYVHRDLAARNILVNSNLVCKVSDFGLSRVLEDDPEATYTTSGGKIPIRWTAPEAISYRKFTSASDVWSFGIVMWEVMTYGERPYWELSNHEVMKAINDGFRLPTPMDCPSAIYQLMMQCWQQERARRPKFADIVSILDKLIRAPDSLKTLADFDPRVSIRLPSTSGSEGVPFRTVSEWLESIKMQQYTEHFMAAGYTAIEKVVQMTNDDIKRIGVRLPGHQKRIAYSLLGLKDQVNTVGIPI
Experimental Endpoint: IC50

Query the reported IC50 for EPHA2 (Homo sapiens); item: C[C@H]1CN(c2c(NC(=O)c3ccc(F)c(-c4c(F)cccc4F)n3)cnc3c2CC[C@H]3O)C[C@@H](N)[C@@H]1O.O=P(O)(O)O [INCB053914]
> 20 µM

###

Study System: UniProtKB Q05397
Experimental Endpoint: IC50

So what's the measured IC50 for this one? C[C@H]1CN(c2c(NC(=O)c3ccc(F)c(-c4c(F)cccc4F)n3)cnc3c2CC[C@H]3O)C[C@@H](N)[C@@H]1O.O=P(O)(O)O [INCB053914]
> 20 µM

###

Study System: IGF1R (Homo sapiens)
pIC50: −log10 of the molar value.
Experimental Endpoint: pIC50

So what's the measured pIC50 for this one? C[C@H]1CN(c2c(NC(=O)c3ccc(F)c(-c4c(F)cccc4F)n3)cnc3c2CC[C@H]3O)C[C@@H](N)[C@@H]1O.O=P(O)(O)O
< 4.70

###

Study System: ERBB4 (Homo sapiens, UniProt Q15303)
Sequence (Q15303 26-1308): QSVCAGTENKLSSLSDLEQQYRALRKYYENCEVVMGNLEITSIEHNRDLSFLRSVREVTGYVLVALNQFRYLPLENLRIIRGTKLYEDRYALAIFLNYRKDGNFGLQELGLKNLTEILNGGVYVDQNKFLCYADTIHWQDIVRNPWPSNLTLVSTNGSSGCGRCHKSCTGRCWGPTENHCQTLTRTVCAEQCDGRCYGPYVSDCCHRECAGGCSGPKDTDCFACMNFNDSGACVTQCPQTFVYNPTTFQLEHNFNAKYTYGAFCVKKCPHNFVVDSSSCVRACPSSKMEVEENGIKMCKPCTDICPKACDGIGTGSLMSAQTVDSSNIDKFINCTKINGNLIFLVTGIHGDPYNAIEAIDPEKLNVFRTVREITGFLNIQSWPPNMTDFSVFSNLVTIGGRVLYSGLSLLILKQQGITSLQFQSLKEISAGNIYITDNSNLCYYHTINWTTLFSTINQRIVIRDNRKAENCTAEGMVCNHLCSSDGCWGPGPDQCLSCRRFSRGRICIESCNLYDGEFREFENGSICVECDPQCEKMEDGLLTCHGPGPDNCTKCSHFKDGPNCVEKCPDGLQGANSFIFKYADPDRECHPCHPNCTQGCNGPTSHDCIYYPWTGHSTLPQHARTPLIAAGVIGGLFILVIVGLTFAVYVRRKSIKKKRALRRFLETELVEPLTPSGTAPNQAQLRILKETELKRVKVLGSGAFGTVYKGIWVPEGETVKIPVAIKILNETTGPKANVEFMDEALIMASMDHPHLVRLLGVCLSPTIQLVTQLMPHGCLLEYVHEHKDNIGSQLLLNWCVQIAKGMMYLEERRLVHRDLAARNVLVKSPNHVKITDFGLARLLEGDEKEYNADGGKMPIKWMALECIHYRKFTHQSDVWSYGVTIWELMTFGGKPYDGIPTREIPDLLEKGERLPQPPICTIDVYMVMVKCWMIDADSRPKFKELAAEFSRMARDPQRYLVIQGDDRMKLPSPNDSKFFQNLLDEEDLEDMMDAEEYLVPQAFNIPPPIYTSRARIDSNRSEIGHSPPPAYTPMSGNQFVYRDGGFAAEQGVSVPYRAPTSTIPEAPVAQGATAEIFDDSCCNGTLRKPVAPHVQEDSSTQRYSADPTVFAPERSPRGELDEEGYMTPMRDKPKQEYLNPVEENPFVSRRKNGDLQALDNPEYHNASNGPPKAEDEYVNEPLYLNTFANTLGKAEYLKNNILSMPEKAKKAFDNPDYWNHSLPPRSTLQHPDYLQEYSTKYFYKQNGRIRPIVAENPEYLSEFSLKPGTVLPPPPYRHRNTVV
Experimental Endpoint: IC50

Query the reported IC50 for ERBB4 (Homo sapiens, UniProt Q15303); item: C[C@H]1CN(c2c(NC(=O)c3ccc(F)c(-c4c(F)cccc4F)n3)cnc3c2CC[C@H]3O)C[C@@H](N)[C@@H]1O.O=P(O)(O)O [INCB053914]
> 20 µM

###

Study System: PLK3 (Homo sapiens, UniProt Q9H4B4)
Experimental Endpoint: IC50

So what's the measured IC50 for this one? C[C@H]1CN(c2c(NC(=O)c3ccc(F)c(-c4c(F)cccc4F)n3)cnc3c2CC[C@H]3O)C[C@@H](N)[C@@H]1O.O=P(O)(O)O
> 20 µM

###

Study System: UniProt:P49761
Experimental Endpoint: IC50

Query the reported IC50 for UniProt:P49761; item: C[C@H]1CN(c2c(NC(=O)c3ccc(F)c(-c4c(F)cccc4F)n3)cnc3c2CC[C@H]3O)C[C@@H](N)[C@@H]1O.O=P(O)(O)O
> 20 µM

###

Study System: JNK1 (Homo sapiens, UniProt P45983)
Sequence (P45983 whole entry): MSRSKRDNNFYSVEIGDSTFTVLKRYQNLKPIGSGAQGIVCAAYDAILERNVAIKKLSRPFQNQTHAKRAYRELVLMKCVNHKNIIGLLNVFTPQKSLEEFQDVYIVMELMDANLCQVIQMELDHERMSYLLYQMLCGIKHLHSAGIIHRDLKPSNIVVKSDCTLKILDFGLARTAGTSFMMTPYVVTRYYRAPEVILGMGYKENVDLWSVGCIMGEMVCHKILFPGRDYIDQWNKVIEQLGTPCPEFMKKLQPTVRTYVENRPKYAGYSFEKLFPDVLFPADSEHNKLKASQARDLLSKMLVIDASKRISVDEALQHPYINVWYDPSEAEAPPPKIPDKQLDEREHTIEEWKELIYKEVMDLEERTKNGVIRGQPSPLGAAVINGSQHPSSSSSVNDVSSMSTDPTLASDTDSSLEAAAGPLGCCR
Experimental Endpoint: IC50

So what's the measured IC50 for this one? C[C@H]1CN(c2c(NC(=O)c3ccc(F)c(-c4c(F)cccc4F)n3)cnc3c2CC[C@H]3O)C[C@@H](N)[C@@H]1O.O=P(O)(O)O [INCB053914]
> 20 µM

###

Protein target, amino acids: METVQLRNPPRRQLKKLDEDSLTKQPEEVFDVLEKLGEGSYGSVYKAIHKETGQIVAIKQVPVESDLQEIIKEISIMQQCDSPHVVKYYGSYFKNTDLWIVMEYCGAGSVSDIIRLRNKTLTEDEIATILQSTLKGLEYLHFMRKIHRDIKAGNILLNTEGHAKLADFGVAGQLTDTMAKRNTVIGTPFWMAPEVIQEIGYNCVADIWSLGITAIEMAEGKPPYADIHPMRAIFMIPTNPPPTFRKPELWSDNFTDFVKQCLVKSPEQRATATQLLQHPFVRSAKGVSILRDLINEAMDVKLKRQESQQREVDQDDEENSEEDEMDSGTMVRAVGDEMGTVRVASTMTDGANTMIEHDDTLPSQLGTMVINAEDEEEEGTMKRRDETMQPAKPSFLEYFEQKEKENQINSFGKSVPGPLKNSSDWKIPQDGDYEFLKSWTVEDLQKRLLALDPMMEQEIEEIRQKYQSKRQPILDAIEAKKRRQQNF
pIC50: −log10 of the molar value.
Experimental Endpoint: pIC50

So what's the measured pIC50 for this one? C[C@H]1CN(c2c(NC(=O)c3ccc(F)c(-c4c(F)cccc4F)n3)cnc3c2CC[C@H]3O)C[C@@H](N)[C@@H]1O.O=P(O)(O)O
< 4.70

###

Study System: PDGFR BETA (Homo sapiens, UniProt P09619)
Experimental Endpoint: IC50

Query the reported IC50 for PDGFR BETA (Homo sapiens, UniProt P09619); item: C[C@H]1CN(c2c(NC(=O)c3ccc(F)c(-c4c(F)cccc4F)n3)cnc3c2CC[C@H]3O)C[C@@H](N)[C@@H]1O.O=P(O)(O)O
> 20 µM

###

Study System: IKKB (Homo sapiens, UniProt O14920)
Sequence (O14920 whole entry): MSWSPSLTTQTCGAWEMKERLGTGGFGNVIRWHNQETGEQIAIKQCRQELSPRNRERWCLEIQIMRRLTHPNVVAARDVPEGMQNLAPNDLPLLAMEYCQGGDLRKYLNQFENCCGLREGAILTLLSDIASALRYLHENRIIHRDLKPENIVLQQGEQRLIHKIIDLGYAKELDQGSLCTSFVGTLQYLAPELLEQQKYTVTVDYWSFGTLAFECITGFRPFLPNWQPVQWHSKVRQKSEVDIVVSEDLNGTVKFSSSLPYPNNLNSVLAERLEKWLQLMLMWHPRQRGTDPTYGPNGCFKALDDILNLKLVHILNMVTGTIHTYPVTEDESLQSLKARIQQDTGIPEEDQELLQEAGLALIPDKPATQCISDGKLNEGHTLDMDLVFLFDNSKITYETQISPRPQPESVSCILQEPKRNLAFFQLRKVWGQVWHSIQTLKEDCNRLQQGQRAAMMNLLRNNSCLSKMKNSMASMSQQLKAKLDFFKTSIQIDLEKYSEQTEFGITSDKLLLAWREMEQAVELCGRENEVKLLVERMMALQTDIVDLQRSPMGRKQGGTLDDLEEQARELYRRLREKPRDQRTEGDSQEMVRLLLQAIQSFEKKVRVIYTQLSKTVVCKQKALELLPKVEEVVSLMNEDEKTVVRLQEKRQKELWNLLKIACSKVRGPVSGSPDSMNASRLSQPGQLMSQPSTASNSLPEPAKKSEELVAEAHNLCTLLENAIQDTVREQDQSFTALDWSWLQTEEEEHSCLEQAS
pIC50: −log10 of the molar value.
Experimental Endpoint: pIC50

So what's the measured pIC50 for this one? C[C@H]1CN(c2c(NC(=O)c3ccc(F)c(-c4c(F)cccc4F)n3)cnc3c2CC[C@H]3O)C[C@@H](N)[C@@H]1O.O=P(O)(O)O [INCB053914]
< 4.70

###

Study System: UniProt Q86V86
Experimental Endpoint: IC50
Respond with a number, then the unit of measure.

Query the reported IC50 for UniProt Q86V86; item: C[C@H]1CN(c2c(NC(=O)c3ccc(F)c(-c4c(F)cccc4F)n3)cnc3c2CC[C@H]3O)C[C@@H](N)[C@@H]1O.O=P(O)(O)O
0.12 nM

###

Study System: SRC (Homo sapiens, UniProt P12931)
Sequence (P12931 whole entry, species assumed): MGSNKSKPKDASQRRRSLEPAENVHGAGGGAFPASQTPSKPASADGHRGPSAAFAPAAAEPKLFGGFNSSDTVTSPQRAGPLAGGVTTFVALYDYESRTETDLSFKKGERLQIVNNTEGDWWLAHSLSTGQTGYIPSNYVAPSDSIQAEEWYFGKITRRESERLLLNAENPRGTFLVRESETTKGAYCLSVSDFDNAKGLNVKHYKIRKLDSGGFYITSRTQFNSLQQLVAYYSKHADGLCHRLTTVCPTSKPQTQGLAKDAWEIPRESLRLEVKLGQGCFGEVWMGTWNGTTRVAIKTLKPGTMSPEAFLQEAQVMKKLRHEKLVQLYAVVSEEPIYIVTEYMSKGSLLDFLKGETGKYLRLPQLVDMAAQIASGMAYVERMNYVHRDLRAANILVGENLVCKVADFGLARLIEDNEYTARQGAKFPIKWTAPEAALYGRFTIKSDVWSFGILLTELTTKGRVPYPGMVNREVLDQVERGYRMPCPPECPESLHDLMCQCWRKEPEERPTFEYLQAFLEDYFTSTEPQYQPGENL
pIC50: −log10 of the molar value.
Experimental Endpoint: pIC50

Query the reported pIC50 for SRC (Homo sapiens, UniProt P12931); item: C[C@H]1CN(c2c(NC(=O)c3ccc(F)c(-c4c(F)cccc4F)n3)cnc3c2CC[C@H]3O)C[C@@H](N)[C@@H]1O.O=P(O)(O)O
< 4.70

###

Study System: LRRK2 (Homo sapiens, UniProt Q5S007)
Method Description: Kinase selectivity panel
Type: biochemical
Conditions Used: [ATP] = 1 mM
Experimental Endpoint: IC50

So what's the measured IC50 for this one? C[C@H]1CN(c2c(NC(=O)c3ccc(F)c(-c4c(F)cccc4F)n3)cnc3c2CC[C@H]3O)C[C@@H](N)[C@@H]1O.O=P(O)(O)O
> 20 µM

###

System: phosphorylation of BAD in KMS-12-BM cells
Method Description: pBAD S112 ELISA in cells
Format: cell-based
Conditions Used: Homo sapiens, 2.5 hours, RPMI + 10% FBS, read-out: mean (± SD) IC50, pBAD inhibition
Experimental Endpoint: IC50
Respond with a number, then the unit of measure.

So what's the measured IC50 for this one? C[C@H]1CN(c2c(NC(=O)c3ccc(F)c(-c4c(F)cccc4F)n3)cnc3c2CC[C@H]3O)C[C@@H](N)[C@@H]1O.O=P(O)(O)O
0.027 µM

###

Study System: LOK (Homo sapiens, UniProt O94804)
pIC50: −log10 of the molar value.
Experimental Endpoint: pIC50

So what's the measured pIC50 for this one? C[C@H]1CN(c2c(NC(=O)c3ccc(F)c(-c4c(F)cccc4F)n3)cnc3c2CC[C@H]3O)C[C@@H](N)[C@@H]1O.O=P(O)(O)O [INCB053914]
< 4.70

###

Study System: DDR2 (Homo sapiens, UniProt Q16832)
Sequence (Q16832 22-855): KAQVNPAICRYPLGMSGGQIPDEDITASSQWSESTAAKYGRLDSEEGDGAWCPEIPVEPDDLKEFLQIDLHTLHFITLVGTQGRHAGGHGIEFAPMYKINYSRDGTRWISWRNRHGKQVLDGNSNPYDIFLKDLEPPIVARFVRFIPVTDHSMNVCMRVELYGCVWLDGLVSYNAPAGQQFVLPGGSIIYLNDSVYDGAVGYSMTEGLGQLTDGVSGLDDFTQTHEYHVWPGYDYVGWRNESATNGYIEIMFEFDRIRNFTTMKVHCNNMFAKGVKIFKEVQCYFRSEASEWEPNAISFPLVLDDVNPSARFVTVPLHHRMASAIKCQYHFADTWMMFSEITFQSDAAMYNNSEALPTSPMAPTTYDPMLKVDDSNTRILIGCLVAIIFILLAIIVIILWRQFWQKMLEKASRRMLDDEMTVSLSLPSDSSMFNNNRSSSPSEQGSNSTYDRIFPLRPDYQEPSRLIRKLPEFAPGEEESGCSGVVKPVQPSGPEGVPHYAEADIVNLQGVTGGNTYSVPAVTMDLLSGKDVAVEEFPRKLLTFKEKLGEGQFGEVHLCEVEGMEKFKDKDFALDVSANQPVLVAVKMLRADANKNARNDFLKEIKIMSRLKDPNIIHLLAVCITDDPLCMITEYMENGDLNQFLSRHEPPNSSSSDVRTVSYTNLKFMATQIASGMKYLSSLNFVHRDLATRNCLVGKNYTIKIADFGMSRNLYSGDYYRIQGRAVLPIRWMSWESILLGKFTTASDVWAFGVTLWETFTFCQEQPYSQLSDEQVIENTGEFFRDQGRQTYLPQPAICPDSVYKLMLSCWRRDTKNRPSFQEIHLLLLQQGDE
Experimental Endpoint: IC50

Query the reported IC50 for DDR2 (Homo sapiens, UniProt Q16832); item: C[C@H]1CN(c2c(NC(=O)c3ccc(F)c(-c4c(F)cccc4F)n3)cnc3c2CC[C@H]3O)C[C@@H](N)[C@@H]1O.O=P(O)(O)O
> 20 µM

###

Study System: LCK (Homo sapiens, UniProt P06239)
Experimental Endpoint: IC50

Query the reported IC50 for LCK (Homo sapiens, UniProt P06239); item: C[C@H]1CN(c2c(NC(=O)c3ccc(F)c(-c4c(F)cccc4F)n3)cnc3c2CC[C@H]3O)C[C@@H](N)[C@@H]1O.O=P(O)(O)O
> 20 µM

###

Study System: UniProt P31749
pIC50: −log10 of the molar value.
Experimental Endpoint: pIC50

Query the reported pIC50 for UniProt P31749; item: C[C@H]1CN(c2c(NC(=O)c3ccc(F)c(-c4c(F)cccc4F)n3)cnc3c2CC[C@H]3O)C[C@@H](N)[C@@H]1O.O=P(O)(O)O
< 4.70
